Entries and their measured % inhibition Abl(T315I)(h) follow.
target: Abl(T315I)(h) (Homo sapiens, UniProt P00519, T315I); construct: purchased Caliper Life Sciences; assay: Other kinases, single-concentration inhibition (Table 3); assay type: biochemical; conditions: 1 μM

{"columns": ["compound", "% inhibition Abl(T315I)(h)"],
 "data": [
  ["CC[C@@H]1C[C@@H]2/C=C\\COc3cccc(c3)Nc3ncc(F)c(n3)N[C@H]2[C@H]1C(N)=O (single isomer, unassigned) [Example 6]", "89%"],
  ["N#Cc1ccc2cc1NC(=O)CS[C@@H]1C[C@@H]3C[C@H]1[C@@H](Nc1nc(ncc1F)N2)[C@H]3C(N)=O [Example 26]", "2%"],
  ["NC(=O)[C@H]1[C@H]2C[C@H]3[C@H]1Nc1nc(ncc1F)Nc1cccc(c1)NC(=O)CS[C@@H]3C2 [Example 27]", "1%"],
  ["NC(=O)[C@H]1[C@H]2C[C@H]3[C@H]1Nc1nc(ncc1F)Nc1cccc(c1)OCCS[C@@H]3C2 [Example 20]", "34%"],
  ["CC[C@@H]1C[C@@H]2CCCOc3cccc(c3)Nc3ncc(F)c(n3)N[C@H]2[C@H]1C(N)=O (single isomer, unassigned) [Example 5]", "103%"],
  ["NC(=O)[C@H]1[C@H]2C[C@H]3[C@H]1Nc1nc(ncc1F)Nc1cccc(c1)C(=O)CS[C@@H]3C2 [Example 11]", "95%"]
]}

* * *

target: Met(h) (Homo sapiens, UniProt P08581); construct: purchased Caliper Life Sciences; test: Other kinases, single-concentration inhibition (Table 3); type: biochemical; details: 1 μM
Sequence (P08581 25-1390): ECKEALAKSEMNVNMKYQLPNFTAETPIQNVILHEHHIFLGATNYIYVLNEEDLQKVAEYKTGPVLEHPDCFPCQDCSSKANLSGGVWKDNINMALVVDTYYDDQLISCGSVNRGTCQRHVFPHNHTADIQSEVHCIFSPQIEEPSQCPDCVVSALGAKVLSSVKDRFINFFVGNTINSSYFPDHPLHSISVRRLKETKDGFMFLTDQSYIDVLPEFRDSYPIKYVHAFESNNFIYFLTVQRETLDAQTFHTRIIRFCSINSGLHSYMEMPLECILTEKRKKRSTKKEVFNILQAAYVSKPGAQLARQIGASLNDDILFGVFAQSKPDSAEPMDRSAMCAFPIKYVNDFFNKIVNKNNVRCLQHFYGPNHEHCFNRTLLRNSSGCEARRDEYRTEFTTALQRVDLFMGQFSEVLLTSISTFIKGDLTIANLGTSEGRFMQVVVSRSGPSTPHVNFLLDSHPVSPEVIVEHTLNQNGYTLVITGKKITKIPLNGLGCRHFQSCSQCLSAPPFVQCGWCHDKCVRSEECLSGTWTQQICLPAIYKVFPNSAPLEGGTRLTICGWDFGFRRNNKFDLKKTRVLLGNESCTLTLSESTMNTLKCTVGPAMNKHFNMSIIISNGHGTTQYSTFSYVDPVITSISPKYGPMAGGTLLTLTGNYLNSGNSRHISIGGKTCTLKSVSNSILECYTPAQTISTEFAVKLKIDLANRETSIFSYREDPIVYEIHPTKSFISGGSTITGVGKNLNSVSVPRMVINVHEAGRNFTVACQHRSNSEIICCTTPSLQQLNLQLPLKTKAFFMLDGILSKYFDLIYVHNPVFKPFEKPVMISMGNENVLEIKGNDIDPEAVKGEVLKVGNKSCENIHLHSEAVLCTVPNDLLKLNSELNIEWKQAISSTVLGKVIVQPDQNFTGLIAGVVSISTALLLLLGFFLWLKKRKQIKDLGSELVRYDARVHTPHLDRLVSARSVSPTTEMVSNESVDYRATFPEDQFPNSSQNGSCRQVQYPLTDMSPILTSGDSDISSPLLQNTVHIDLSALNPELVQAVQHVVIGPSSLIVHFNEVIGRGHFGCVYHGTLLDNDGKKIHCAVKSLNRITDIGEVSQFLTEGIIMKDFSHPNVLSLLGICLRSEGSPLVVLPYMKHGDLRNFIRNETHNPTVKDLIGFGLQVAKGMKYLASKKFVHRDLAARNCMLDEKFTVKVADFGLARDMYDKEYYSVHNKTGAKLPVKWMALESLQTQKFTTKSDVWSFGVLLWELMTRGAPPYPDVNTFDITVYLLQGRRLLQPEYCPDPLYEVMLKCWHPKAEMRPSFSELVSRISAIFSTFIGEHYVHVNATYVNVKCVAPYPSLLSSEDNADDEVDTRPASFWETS

{"columns": ["molecule", "% inhibition Met(h), %"],
 "data": [
  ["CN1CCN(c2ccc3cc2OCCS[C@@H]2C[C@@H]4C[C@H]2[C@@H](Nc2nc(ncc2F)N3)[C@H]4C(N)=O)CC1 [Example 22]", 46],
  ["NC(=O)[C@H]1[C@H]2C[C@H]3[C@H]1Nc1nc(ncc1F)Nc1cccc(c1)NC(=O)CS[C@@H]3C2 [Example 27]", 69],
  ["NC(=O)[C@H]1[C@H]2C[C@H]3[C@H]1Nc1nc(ncc1F)Nc1cccc(c1)OCCS[C@@H]3C2 [Example 20]", 60],
  ["CC[C@@H]1C[C@@H]2CCCOc3cccc(c3)Nc3ncc(F)c(n3)N[C@H]2[C@H]1C(N)=O (single isomer, unassigned) [Example 5]", 114]
]}

* * *

target: FAK(h) (Homo sapiens); construct: purchased Caliper Life Sciences; assay: Other kinases, single-concentration inhibition (Table 3); format: biochemical; conditions: 1 μM
Sequence (Q05397 whole entry): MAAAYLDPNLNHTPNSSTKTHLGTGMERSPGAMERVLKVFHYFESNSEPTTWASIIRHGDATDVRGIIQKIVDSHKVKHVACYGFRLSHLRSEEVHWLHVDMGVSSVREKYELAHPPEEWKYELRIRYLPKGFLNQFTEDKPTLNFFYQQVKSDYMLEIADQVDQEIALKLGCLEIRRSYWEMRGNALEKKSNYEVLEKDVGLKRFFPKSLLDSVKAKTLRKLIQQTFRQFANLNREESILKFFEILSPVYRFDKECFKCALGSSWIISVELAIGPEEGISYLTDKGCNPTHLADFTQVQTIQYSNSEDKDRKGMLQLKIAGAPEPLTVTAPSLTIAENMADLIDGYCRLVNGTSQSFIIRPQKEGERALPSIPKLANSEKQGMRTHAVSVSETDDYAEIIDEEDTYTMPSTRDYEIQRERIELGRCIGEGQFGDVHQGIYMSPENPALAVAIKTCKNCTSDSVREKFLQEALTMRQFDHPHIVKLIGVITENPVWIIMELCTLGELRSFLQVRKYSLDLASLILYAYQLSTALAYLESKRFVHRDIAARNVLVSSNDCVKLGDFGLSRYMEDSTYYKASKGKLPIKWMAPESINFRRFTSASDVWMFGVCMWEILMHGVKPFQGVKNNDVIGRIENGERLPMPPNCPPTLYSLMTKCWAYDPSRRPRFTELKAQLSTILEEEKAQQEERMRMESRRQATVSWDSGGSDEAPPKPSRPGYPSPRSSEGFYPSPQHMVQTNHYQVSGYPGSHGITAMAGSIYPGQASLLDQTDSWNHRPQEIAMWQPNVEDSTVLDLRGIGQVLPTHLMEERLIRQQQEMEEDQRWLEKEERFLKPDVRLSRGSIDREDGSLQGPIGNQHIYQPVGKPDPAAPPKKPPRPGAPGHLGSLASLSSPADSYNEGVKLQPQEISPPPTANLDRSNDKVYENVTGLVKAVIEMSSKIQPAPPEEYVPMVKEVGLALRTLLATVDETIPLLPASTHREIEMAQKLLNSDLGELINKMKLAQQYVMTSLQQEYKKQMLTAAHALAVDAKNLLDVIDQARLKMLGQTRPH

{"columns": ["molecule", "% inhibition FAK(h)"],
 "data": [
  ["C=C[C@@H]1C[C@@H]2/C=C/COc3cccc(c3)Nc3ncc(F)c(n3)N[C@H]2[C@H]1C(N)=O (single isomer, unassigned)", "86%"],
  ["CN1CCN(c2ccc3cc2OCCS[C@@H]2C[C@@H]4C[C@H]2[C@@H](Nc2nc(ncc2F)N3)[C@H]4C(N)=O)CC1", "30%"],
  ["NC(=O)[C@H]1[C@H]2C[C@H]3[C@H]1Nc1nc(ncc1F)Nc1cccc(c1)C(=O)CS[C@@H]3C2", "77%"],
  ["NC(=O)[C@H]1[C@H]2C[C@H]3[C@H]1Nc1nc(ncc1F)Nc1cccc(c1)NC(=O)CS[C@@H]3C2", "41%"]
]}

* * *

molecular target: CaMKIV(h) (Homo sapiens); construct: purchased Caliper Life Sciences; assay: Other kinases, single-concentration inhibition (Table 3); assay type: biochemical; conditions: 1 μM
Sequence (Q16566 whole entry): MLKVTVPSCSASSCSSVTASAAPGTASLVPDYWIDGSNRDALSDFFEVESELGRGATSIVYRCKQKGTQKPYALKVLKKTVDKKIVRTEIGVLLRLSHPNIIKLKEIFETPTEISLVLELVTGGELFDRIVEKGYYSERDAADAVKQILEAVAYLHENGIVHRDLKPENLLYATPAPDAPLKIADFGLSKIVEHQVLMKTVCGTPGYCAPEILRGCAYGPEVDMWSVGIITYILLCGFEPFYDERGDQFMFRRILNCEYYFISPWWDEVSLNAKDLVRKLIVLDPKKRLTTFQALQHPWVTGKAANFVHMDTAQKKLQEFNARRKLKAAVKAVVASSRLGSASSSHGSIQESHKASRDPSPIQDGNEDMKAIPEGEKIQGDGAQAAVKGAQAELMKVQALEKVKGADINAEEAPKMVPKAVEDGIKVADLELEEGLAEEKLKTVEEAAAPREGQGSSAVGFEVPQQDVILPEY

{"columns": ["molecule", "% inhibition CaMKIV(h) [%]"],
 "data": [
  ["CC[C@@H]1C[C@@H]2CCCOc3cccc(c3)Nc3ncc(F)c(n3)N[C@H]2[C@H]1C(N)=O (single isomer, unassigned) [Example 5]", 97],
  ["NC(=O)[C@H]1[C@H]2C[C@H]3[C@H]1Nc1nc(ncc1F)Nc1cccc(c1)C(=O)CS[C@@H]3C2 [Example 11]", 119],
  ["CN1CCN(c2ccc3cc2OCCS[C@@H]2C[C@@H]4C[C@H]2[C@@H](Nc2nc(ncc2F)N3)[C@H]4C(N)=O)CC1 [Example 22]", 83],
  ["CC[C@@H]1C[C@@H]2/C=C\\COc3cccc(c3)Nc3ncc(F)c(n3)N[C@H]2[C@H]1C(N)=O (single isomer, unassigned) [Example 6]", 99],
  ["CN1CCN(c2ccc3cc2NC(=O)CS[C@@H]2C[C@@H]4C[C@H]2[C@@H](Nc2nc(ncc2F)N3)[C@H]4C(N)=O)CC1 [Example 24]", 100],
  ["NC(=O)[C@H]1[C@H]2C[C@H]3[C@H]1Nc1nc(ncc1F)Nc1cccc(c1)CSS[C@@H]3C2 [Example 10]", 66],
  ["N#Cc1ccc2cc1NC(=O)CS[C@@H]1C[C@@H]3C[C@H]1[C@@H](Nc1nc(ncc1F)N2)[C@H]3C(N)=O [Example 26]", 11],
  ["NC(=O)[C@H]1[C@H]2C[C@H]3[C@H]1Nc1nc(ncc1F)Nc1cccc(c1)OCCS[C@@H]3C2 [Example 20]", 103],
  ["NC(=O)[C@H]1[C@H]2C[C@H]3[C@H]1Nc1nc(ncc1F)Nc1cccc(c1)NC(=O)CS[C@@H]3C2 [Example 27]", 111],
  ["C=C[C@@H]1C[C@@H]2/C=C/COc3cccc(c3)Nc3ncc(F)c(n3)N[C@H]2[C@H]1C(N)=O (single isomer, unassigned) [Example 3]", 140]
]}

* * *

target: EphB2(h) (Homo sapiens, UniProt P29323); construct: purchased Caliper Life Sciences; assay: Other kinases, single-concentration inhibition (Table 3); assay type: biochemical; conditions: 1 μM
Sequence (P29323 19-1055): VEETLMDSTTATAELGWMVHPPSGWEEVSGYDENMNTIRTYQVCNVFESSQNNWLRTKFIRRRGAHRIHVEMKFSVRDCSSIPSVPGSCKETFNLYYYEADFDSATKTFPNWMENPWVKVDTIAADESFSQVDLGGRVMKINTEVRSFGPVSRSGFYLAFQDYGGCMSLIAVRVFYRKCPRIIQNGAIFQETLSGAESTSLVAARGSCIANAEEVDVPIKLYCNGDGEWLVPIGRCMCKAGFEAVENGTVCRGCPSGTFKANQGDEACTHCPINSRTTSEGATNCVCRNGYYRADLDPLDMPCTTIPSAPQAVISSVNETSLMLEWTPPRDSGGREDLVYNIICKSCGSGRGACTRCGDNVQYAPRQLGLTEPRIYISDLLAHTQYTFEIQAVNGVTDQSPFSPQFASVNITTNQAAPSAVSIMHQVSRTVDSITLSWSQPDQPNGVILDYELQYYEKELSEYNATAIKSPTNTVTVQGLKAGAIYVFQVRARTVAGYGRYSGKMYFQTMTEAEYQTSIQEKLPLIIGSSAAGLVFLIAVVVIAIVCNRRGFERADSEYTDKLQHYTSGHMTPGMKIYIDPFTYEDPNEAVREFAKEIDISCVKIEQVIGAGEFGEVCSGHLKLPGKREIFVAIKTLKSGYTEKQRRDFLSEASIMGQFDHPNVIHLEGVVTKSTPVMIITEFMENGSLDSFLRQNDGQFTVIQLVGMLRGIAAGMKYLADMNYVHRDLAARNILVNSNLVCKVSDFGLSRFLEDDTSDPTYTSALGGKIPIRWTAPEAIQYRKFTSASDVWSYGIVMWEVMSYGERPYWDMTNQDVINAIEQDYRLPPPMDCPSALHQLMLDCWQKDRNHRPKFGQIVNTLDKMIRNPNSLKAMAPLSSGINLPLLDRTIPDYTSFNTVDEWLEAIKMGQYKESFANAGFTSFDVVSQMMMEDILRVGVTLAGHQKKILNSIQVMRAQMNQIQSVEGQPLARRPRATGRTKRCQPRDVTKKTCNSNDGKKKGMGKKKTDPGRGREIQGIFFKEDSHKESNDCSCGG

{"columns": ["molecule", "% inhibition EphB2(h), %"],
 "data": [
  ["CN1CCN(c2ccc3cc2NC(=O)CS[C@@H]2C[C@@H]4C[C@H]2[C@@H](Nc2nc(ncc2F)N3)[C@H]4C(N)=O)CC1 [Example 24]", 17],
  ["CN1CCN(c2ccc3cc2OCCS[C@@H]2C[C@@H]4C[C@H]2[C@@H](Nc2nc(ncc2F)N3)[C@H]4C(N)=O)CC1 [Example 22]", 16],
  ["NC(=O)[C@H]1[C@H]2C[C@H]3[C@H]1Nc1nc(ncc1F)Nc1cccc(c1)C(=O)CS[C@@H]3C2 [Example 11]", 115],
  ["CC[C@@H]1C[C@@H]2CCCOc3cccc(c3)Nc3ncc(F)c(n3)N[C@H]2[C@H]1C(N)=O (single isomer, unassigned) [Example 5]", 94]
]}

* * *

Molecular target: IRAK4(h) (Homo sapiens, UniProt Q9NWZ3)
Construct: purchased Caliper Life Sciences
Sequence (Q9NWZ3 whole entry): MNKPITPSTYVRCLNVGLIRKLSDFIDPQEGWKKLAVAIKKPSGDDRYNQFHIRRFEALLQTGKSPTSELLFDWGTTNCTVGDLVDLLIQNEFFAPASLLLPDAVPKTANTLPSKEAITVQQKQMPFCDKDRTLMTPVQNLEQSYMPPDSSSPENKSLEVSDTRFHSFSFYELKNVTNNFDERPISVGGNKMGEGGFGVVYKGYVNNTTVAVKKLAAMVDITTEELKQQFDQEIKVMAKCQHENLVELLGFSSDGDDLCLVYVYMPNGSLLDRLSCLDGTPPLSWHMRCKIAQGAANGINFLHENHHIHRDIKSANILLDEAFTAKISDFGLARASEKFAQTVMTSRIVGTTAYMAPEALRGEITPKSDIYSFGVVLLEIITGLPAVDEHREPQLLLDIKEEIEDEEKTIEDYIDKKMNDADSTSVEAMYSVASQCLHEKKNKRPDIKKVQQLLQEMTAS
Assay: Other kinases, single-concentration inhibition (Table 3)
Assay type: biochemical
Settings: 1 μM
Experimental: The Aurora and other kinase assays described here were performed on two Caliper Life Sciences systems, the LC3000 and the Desktop Profiler. These provide data on enzyme activity via measurement of the relative amounts of phosphorylated or unphosphorylated fluorescently labelled substrate peptide at the end of an enzymatic reaction. […] Plates were read in a manner identical to that of the LC3000, and the ratio between substrate and product peaks provided the activity of the enzyme in that well. […]

{"columns": ["compound", "% inhibition IRAK4(h) [%]"],
 "data": [
  ["CC[C@@H]1C[C@@H]2/C=C\\COc3cccc(c3)Nc3ncc(F)c(n3)N[C@H]2[C@H]1C(N)=O (single isomer, unassigned)", 52],
  ["NC(=O)[C@H]1[C@H]2C[C@H]3[C@H]1Nc1nc(ncc1F)Nc1cccc(c1)C(=O)CS[C@@H]3C2", 90],
  ["NC(=O)[C@H]1[C@H]2C[C@H]3[C@H]1Nc1nc(ncc1F)Nc1cccc(c1)NC(=O)CS[C@@H]3C2", 12],
  ["CN1CCN(c2ccc3cc2OCCS[C@@H]2C[C@@H]4C[C@H]2[C@@H](Nc2nc(ncc2F)N3)[C@H]4C(N)=O)CC1", 52]
]}

* * *

Entries and their measured % inhibition KDR(h) follow.
target: KDR(h) (Homo sapiens, UniProt P35968); construct: purchased Caliper Life Sciences; experiment: Other kinases, single-concentration inhibition (Table 3); assay type: biochemical; details: 1 μM

{"columns": ["compound", "% inhibition KDR(h)"],
 "data": [
  ["NC(=O)[C@H]1[C@H]2C[C@H]3[C@H]1Nc1nc(ncc1F)Nc1cccc(c1)C(=O)CS[C@@H]3C2", "101%"],
  ["CC[C@@H]1C[C@@H]2/C=C\\COc3cccc(c3)Nc3ncc(F)c(n3)N[C@H]2[C@H]1C(N)=O (single isomer, unassigned)", "62%"],
  ["NC(=O)[C@H]1[C@H]2C[C@H]3[C@H]1Nc1nc(ncc1F)Nc1cccc(c1)NC(=O)CS[C@@H]3C2", "7%"],
  ["NC(=O)[C@H]1[C@H]2C[C@H]3[C@H]1Nc1nc(ncc1F)Nc1cccc(c1)OCCS[C@@H]3C2", "8%"],
  ["CN1CCN(c2ccc3cc2NC(=O)CS[C@@H]2C[C@@H]4C[C@H]2[C@@H](Nc2nc(ncc2F)N3)[C@H]4C(N)=O)CC1", "8%"],
  ["CN1CCN(c2ccc3cc2OCCS[C@@H]2C[C@@H]4C[C@H]2[C@@H](Nc2nc(ncc2F)N3)[C@H]4C(N)=O)CC1", "41%"],
  ["NC(=O)[C@H]1[C@H]2C[C@H]3[C@H]1Nc1nc(ncc1F)Nc1cccc(c1)CSS[C@@H]3C2", "32%"],
  ["CC[C@@H]1C[C@@H]2CCCOc3cccc(c3)Nc3ncc(F)c(n3)N[C@H]2[C@H]1C(N)=O (single isomer, unassigned)", "70%"],
  ["C=C[C@@H]1C[C@@H]2/C=C/COc3cccc(c3)Nc3ncc(F)c(n3)N[C@H]2[C@H]1C(N)=O (single isomer, unassigned)", "95%"],
  ["N#Cc1ccc2cc1NC(=O)CS[C@@H]1C[C@@H]3C[C@H]1[C@@H](Nc1nc(ncc1F)N2)[C@H]3C(N)=O", "8%"]
]}
